# System: UACC-62
# Assay Name: Growth inhibition of human UACC62 cells at 10 uM after 48 hrs
# Type: functional
# Run Conditions: UACC-62, 48 h, read-out: GI
Readout Type: inhibition of growth at 10 µM (%)

compound_string=COc1ccc(/C=C2\CCCc3c2nc(C)nc3-c2ccc(OC)c(OC)c2)cc1OC readout_type="inhibition of growth at 10 µM" lt_gt_eq== numeric_value=89.1
compound_string=Nc1nc2c(c(-c3ccc(Br)cc3)n1)CCC/C2=C\c1ccc(Br)cc1 readout_type="inhibition of growth at 10 µM" lt_gt_eq=< numeric_value=30
compound_string=Nc1nc2c(c(-c3ccc(Cl)cc3)n1)CCC/C2=C\c1ccc(Cl)cc1 readout_type="inhibition of growth at 10 µM" lt_gt_eq=< numeric_value=30
compound_string=COc1ccc(/C=C2\CCCc3c2nc(C)nc3-c2ccc(OC)cc2)cc1 readout_type="inhibition of growth at 10 µM" lt_gt_eq=< numeric_value=30
compound_string=Cc1nc2c(c(-c3ccc(Br)cc3)n1)CCC/C2=C\c1ccc(Br)cc1 readout_type="inhibition of growth at 10 µM" lt_gt_eq=< numeric_value=30
compound_string=COc1cc(/C=C2\CCCc3c2nc(C)nc3-c2cc(OC)c(OC)c(OC)c2)cc(OC)c1OC readout_type="inhibition of growth at 10 µM" lt_gt_eq== numeric_value=91
compound_string=COc1ccc(/C=C2\CCCc3c2nc(N)nc3-c2ccc(OC)c(OC)c2)cc1OC readout_type="inhibition of growth at 10 µM" lt_gt_eq== numeric_value=47.2
compound_string=Clc1ccc(/C=C2\CCCC3=C(c4ccc(Cl)cc4)Nc4ccccc4N=C32)cc1 readout_type="inhibition of growth at 10 µM" lt_gt_eq=< numeric_value=30
compound_string=Cc1nc2c(c(-c3ccc(Cl)cc3)n1)CCC/C2=C\c1ccc(Cl)cc1 readout_type="inhibition of growth at 10 µM" lt_gt_eq=< numeric_value=30
compound_string=COc1ccc(/C=C2\CCCC3=C(c4ccc(OC)cc4)Nc4ccccc4N=C32)cc1 readout_type="inhibition of growth at 10 µM" lt_gt_eq== numeric_value=32
compound_string=COc1ccc(/C=C2\CCCc3c2nc(N)nc3-c2ccc(OC)cc2)cc1 readout_type="inhibition of growth at 10 µM" lt_gt_eq== numeric_value=32.1

---

# System: MDA-MB-468
# Assay Name: Growth inhibition of human MDA-MB-468 cells at 10 uM after 48 hrs
# Format: functional
# Run Conditions: MDA-MB-468, 48 h, read-out: GI
Entries and their inhibition of growth at 10 µM
Readout Type: inhibition of growth at 10 µM (%)

compound_string=Cc1nc2c(c(-c3ccc(Br)cc3)n1)CCC/C2=C\c1ccc(Br)cc1 lt_gt_eq=< numeric_value=30
compound_string=COc1ccc(/C=C2\CCCC3=C(c4ccc(OC)cc4)Nc4ccccc4N=C32)cc1 lt_gt_eq== numeric_value=56.4
compound_string=Nc1nc2c(c(-c3ccc(Cl)cc3)n1)CCC/C2=C\c1ccc(Cl)cc1 lt_gt_eq== numeric_value=37.8
compound_string=Cc1nc2c(c(-c3ccc(Cl)cc3)n1)CCC/C2=C\c1ccc(Cl)cc1 lt_gt_eq=< numeric_value=30
compound_string=COc1ccc(/C=C2\CCCc3c2nc(C)nc3-c2ccc(OC)cc2)cc1 lt_gt_eq=< numeric_value=30
compound_string=Clc1ccc(/C=C2\CCCC3=C(c4ccc(Cl)cc4)Nc4ccccc4N=C32)cc1 lt_gt_eq== numeric_value=40
compound_string=Nc1nc2c(c(-c3ccc(Br)cc3)n1)CCC/C2=C\c1ccc(Br)cc1 lt_gt_eq=< numeric_value=30

---

Quick list: CC50 per entry.
# Assay Name: Cytotoxicity against human renal cancer cells at 10 uM after 48 hrs
# Format: functional
# Run Conditions: Cancer cell lines
Readout Type: CC50 (µM)

compound_string=COc1ccc(/C=C2\CCCc3c2nc(C)nc3-c2ccc(OC)c(OC)c2)cc1OC readout_type=CC50 lt_gt_eq== numeric_value=96.9
compound_string=COc1cc(/C=C2\CCCC3=C(c4cc(OC)c(OC)c(OC)c4)Nc4ccccc4N=C32)cc(OC)c1OC readout_type=CC50 lt_gt_eq== numeric_value=68.4
compound_string=Nc1nc2c(c(-c3ccc(Cl)cc3)n1)CCC/C2=C\c1ccc(Cl)cc1 readout_type=CC50 lt_gt_eq== numeric_value=78.4
compound_string=COc1ccc(/C=C2\CCCc3c2nc(N)nc3-c2ccc(OC)c(OC)c2)cc1OC readout_type=CC50 lt_gt_eq== numeric_value=93.6
compound_string=COc1cc(/C=C2\CCCc3c2nc(C)nc3-c2cc(OC)c(OC)c(OC)c2)cc(OC)c1OC readout_type=CC50 lt_gt_eq=> numeric_value=100
compound_string=Clc1ccc(/C=C2\CCCC3=C(c4ccc(Cl)cc4)Nc4ccccc4N=C32)cc1 readout_type=CC50 lt_gt_eq== numeric_value=64
compound_string=O=c1[nH]cc(F)c(=O)[nH]1 readout_type=CC50 lt_gt_eq=> numeric_value=100
compound_string=COc1cc(/C=C2\CCCc3c2nc(N)nc3-c2cc(OC)c(OC)c(OC)c2)cc(OC)c1OC readout_type=CC50 lt_gt_eq=> numeric_value=100

---

Known inhibition of growth at 10 µM of a selection of molecules
# Test system: COLO 205
# Assay Name: Growth inhibition of human COLO205 cells at 10 uM after 48 hrs
# Type: functional
# Run Conditions: COLO 205, 48 h, read-out: GI
Readout Type: inhibition of growth at 10 µM (%)

compound_string=Clc1ccc(/C=C2\CCCC3=C(c4ccc(Cl)cc4)Nc4ccccc4N=C32)cc1 readout_type="inhibition of growth at 10 µM" lt_gt_eq== numeric_value=31.9
compound_string=COc1ccc(/C=C2\CCCc3c2nc(N)nc3-c2ccc(OC)cc2)cc1 readout_type="inhibition of growth at 10 µM" lt_gt_eq=< numeric_value=30
compound_string=COc1cc(/C=C2\CCCc3c2nc(C)nc3-c2cc(OC)c(OC)c(OC)c2)cc(OC)c1OC readout_type="inhibition of growth at 10 µM" lt_gt_eq== numeric_value=80.9
compound_string=Nc1nc2c(c(-c3ccc(Cl)cc3)n1)CCC/C2=C\c1ccc(Cl)cc1 readout_type="inhibition of growth at 10 µM" lt_gt_eq=< numeric_value=30
compound_string=Cc1nc2c(c(-c3ccc(Br)cc3)n1)CCC/C2=C\c1ccc(Br)cc1 readout_type="inhibition of growth at 10 µM" lt_gt_eq=< numeric_value=30

---

# Tested on: T47D
# Assay Name: Growth inhibition of human T47D cells at 10 uM after 48 hrs
# Format: functional
# Run Conditions: read-out: GI
Item-by-item account of inhibition of growth at 10 µM
Readout Type: inhibition of growth at 10 µM

compound_string=COc1ccc(/C=C2\CCCC3=C(c4ccc(OC)cc4)Nc4ccccc4N=C32)cc1 readout_type="inhibition of growth at 10 µM" result="< 30%"
compound_string=COc1cc(/C=C2\CCCc3c2nc(N)nc3-c2cc(OC)c(OC)c(OC)c2)cc(OC)c1OC readout_type="inhibition of growth at 10 µM" result=72.5%
compound_string=COc1cc(/C=C2\CCCc3c2nc(C)nc3-c2cc(OC)c(OC)c(OC)c2)cc(OC)c1OC readout_type="inhibition of growth at 10 µM" result="< 30%"

---

# System: T47D
# Assay Name: Growth inhibition of human T47D cells at 10 uM after 48 hrs
# Assay type: functional
# Run Conditions: read-out: GI
Readout Type: inhibition of growth at 10 µM

compound_string=Clc1ccc(/C=C2\CCCC3=C(c4ccc(Cl)cc4)Nc4ccccc4N=C32)cc1 readout_type="inhibition of growth at 10 µM" result="< 30%"
compound_string=COc1ccc(/C=C2\CCCc3c2nc(N)nc3-c2ccc(OC)cc2)cc1 readout_type="inhibition of growth at 10 µM" result="< 30%"
compound_string=Nc1nc2c(c(-c3ccc(Br)cc3)n1)CCC/C2=C\c1ccc(Br)cc1 readout_type="inhibition of growth at 10 µM" result="< 30%"
compound_string=Cc1nc2c(c(-c3ccc(Cl)cc3)n1)CCC/C2=C\c1ccc(Cl)cc1 readout_type="inhibition of growth at 10 µM" result="< 30%"
compound_string=COc1ccc(/C=C2\CCCc3c2nc(C)nc3-c2ccc(OC)c(OC)c2)cc1OC readout_type="inhibition of growth at 10 µM" result=88.8%
compound_string=COc1cc(/C=C2\CCCC3=C(c4cc(OC)c(OC)c(OC)c4)Nc4ccccc4N=C32)cc(OC)c1OC readout_type="inhibition of growth at 10 µM" result=76.2%
compound_string=Nc1nc2c(c(-c3ccc(Cl)cc3)n1)CCC/C2=C\c1ccc(Cl)cc1 readout_type="inhibition of growth at 10 µM" result="< 30%"
compound_string=Cc1nc2c(c(-c3ccc(Br)cc3)n1)CCC/C2=C\c1ccc(Br)cc1 readout_type="inhibition of growth at 10 µM" result="< 30%"
compound_string=COc1ccc(/C=C2\CCCc3c2nc(N)nc3-c2ccc(OC)c(OC)c2)cc1OC readout_type="inhibition of growth at 10 µM" result="< 30%"
compound_string=COc1ccc(/C=C2\CCCc3c2nc(C)nc3-c2ccc(OC)cc2)cc1 readout_type="inhibition of growth at 10 µM" result="< 30%"

All values here come from ChEMBL document CHEMBL3112482.
